Measurement target: melanocortin-1 receptor (human, UniProt Q01726 1-317)
Sequence (Q01726 whole entry): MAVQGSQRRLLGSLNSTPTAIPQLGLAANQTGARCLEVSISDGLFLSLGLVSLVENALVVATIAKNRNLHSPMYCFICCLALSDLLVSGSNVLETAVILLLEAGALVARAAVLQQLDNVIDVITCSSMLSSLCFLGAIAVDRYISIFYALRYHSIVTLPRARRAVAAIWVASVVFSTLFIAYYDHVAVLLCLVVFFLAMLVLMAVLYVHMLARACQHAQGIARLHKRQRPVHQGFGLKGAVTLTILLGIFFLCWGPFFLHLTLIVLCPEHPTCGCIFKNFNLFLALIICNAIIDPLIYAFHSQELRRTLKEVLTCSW
Method description: cell-based or functional assay
Bridge positions count the residues as written; N and C are the ends. Square brackets hold non-standard residues; d marks the D form. dPhe(4-F) = N[C@H](Cc1ccc(F)cc1)C(=O)O; hCys = N[C@@H](CCS)C(=O)O
Mark true (1) only for Ratios of EC50 values: MC1/4 values smaller than 0.9; exact matches and larger values are false (0).

Binder: Ac-RC[dA]Y[dF]RWC-NH2 (disulfide 2-8; SMILES CC(=O)N[C@@H](CCCNC(=N)N)C(=O)N[C@H]1CSSC[C@@H](C(N)=O)NC(=O)[C@H](Cc2c[nH]c3ccccc23)NC(=O)[C@H](CCCNC(=N)N)NC(=O)[C@@H](Cc2ccccc2)NC(=O)[C@H](Cc2ccc(O)cc2)NC(=O)[C@@H](C)NC1=O) [Compound 11: Ac-Arg-cyclo[Cys-D-Ala-Tyr-D-Phe-Arg-Trp-Cys]-NH2]
Cat: false (0)
--
Binder: Ac-RC[dI]H[dF]RWC-NH2 (disulfide 2-8) [Compound 2: Ac-Arg-cyclo[Cys-D-Ile-His-D-Phe-Arg-Trp-Cys]-NH2]
Cat: true (1)
--
Binder: Ac-RC[dA]P[dF]RWC-NH2 (disulfide 2-8; SMILES CC(=O)N[C@@H](CCCNC(=N)N)C(=O)N[C@H]1CSSC[C@@H](C(N)=O)NC(=O)[C@H](Cc2c[nH]c3ccccc23)NC(=O)[C@H](CCCNC(=N)N)NC(=O)[C@@H](Cc2ccccc2)NC(=O)[C@@H]2CCCN2C(=O)[C@@H](C)NC1=O) [Compound 13: Ac-Arg-cyclo[Cys-D-Ala-Pro-D-Phe-Arg-Trp-Cys]-NH2]
Cat: false (0)
--
Binder: Ac-RC[dA]R[dF]RWC-NH2 (disulfide 2-8; SMILES CC(=O)N[C@@H](CCCNC(=N)N)C(=O)N[C@H]1CSSC[C@@H](C(N)=O)NC(=O)[C@H](Cc2c[nH]c3ccccc23)NC(=O)[C@H](CCCNC(=N)N)NC(=O)[C@@H](Cc2ccccc2)NC(=O)[C@H](CCCNC(=N)N)NC(=O)[C@@H](C)NC1=O) [Compound 10: Ac-Arg-cyclo[Cys-D-Ala-Arg-D-Phe-Arg-Trp-Cys]-NH2]
Cat: false (0)
--
Binder: Ac-R[hCys]A[dF]RWC-NH2 (disulfide 2-7; SMILES CC(=O)N[C@@H](CCCNC(=N)N)C(=O)N[C@H]1CCSSC[C@@H](C(N)=O)NC(=O)[C@H](Cc2c[nH]c3ccccc23)NC(=O)[C@H](CCCNC(=N)N)NC(=O)[C@@H](Cc2ccccc2)NC(=O)[C@H](C)NC1=O) [Compound 15: Ac-Arg-cyclo[hCys-Ala-D-Phe-Arg-Trp-Cys]-NH2]
Cat: false (0)
--
Binder: Ac-ECAH[dF]RWC-NH2 (disulfide 2-8; SMILES CC(=O)N[C@@H](CCC(=O)O)C(=O)N[C@H]1CSSC[C@@H](C(N)=O)NC(=O)[C@H](Cc2c[nH]c3ccccc23)NC(=O)[C@H](CCCNC(=N)N)NC(=O)[C@@H](Cc2ccccc2)NC(=O)[C@H](Cc2c[nH]cn2)NC(=O)[C@H](C)NC1=O) [Compound 22: Ac-Glu-cyclo[Cys-Ala-His-D-Phe-Arg-Trp-Cys]-NH2]
Cat: false (0)
--
Binder: Ac-RC[dA]P[dPhe(4-F)]RWC-NH2 (disulfide 2-8; SMILES CC(=O)N[C@@H](CCCNC(=N)N)C(=O)N[C@H]1CSSC[C@@H](C(N)=O)NC(=O)[C@H](Cc2c[nH]c3ccccc23)NC(=O)[C@H](CCCNC(=N)N)NC(=O)[C@@H](Cc2ccc(F)cc2)NC(=O)[C@@H]2CCCN2C(=O)[C@@H](C)NC1=O) [Compound 14: Ac-Arg-cyclo[Cys-D-Ala-Pro-D-Phe(p-F)-Arg-Trp-Cys]-NH2]
Cat: false (0)
--
Binder: Ac-RC[dL]H[dF]RWC-NH2 (disulfide 2-8) [Compound 1: Ac-Arg-cyclo[Cys-D-Leu-His-D-Phe-Arg-Trp-Cys]-NH2]
Cat: true (1)
--
Binder: Ac-RC[dV]H[dF]RWC-NH2 (disulfide 2-8) [Compound 4: Ac-Arg-cyclo[Cys-D-Val-His-D-Phe-Arg-Trp-Cys]-NH2]
Cat: false (0)

Values from patent US20160022764A1
